// reported CD25 Activation, Day 9, PB per item
Molecular target: canine CD3 on canine T cells (canine PBMC) (canine, UniProt P27597 22-202)
Sequence (P27597 22-202 limits assumed, chain 1 of 3): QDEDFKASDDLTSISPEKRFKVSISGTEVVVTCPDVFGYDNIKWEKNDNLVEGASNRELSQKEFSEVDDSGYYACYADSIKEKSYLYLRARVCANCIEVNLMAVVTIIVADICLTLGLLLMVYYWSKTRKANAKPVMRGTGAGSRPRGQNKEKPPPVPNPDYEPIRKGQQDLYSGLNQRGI
Sequence (chain, as listed by the source limits assumed, chain 2 of 3): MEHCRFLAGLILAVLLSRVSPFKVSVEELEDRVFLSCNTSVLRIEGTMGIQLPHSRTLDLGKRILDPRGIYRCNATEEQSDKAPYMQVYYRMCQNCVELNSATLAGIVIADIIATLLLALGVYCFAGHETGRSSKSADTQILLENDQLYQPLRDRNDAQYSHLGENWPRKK
Sequence (chain, as listed by the source limits assumed, chain 3 of 3): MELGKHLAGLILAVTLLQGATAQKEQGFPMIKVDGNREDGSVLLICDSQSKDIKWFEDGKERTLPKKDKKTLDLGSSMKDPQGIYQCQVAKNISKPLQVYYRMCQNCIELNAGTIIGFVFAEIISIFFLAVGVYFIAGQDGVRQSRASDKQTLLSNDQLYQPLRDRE
Assay: cell-based or functional assay
No unit in the answer, please; the number alone is enough.

Query: Answer with reported CD25 Activation, Day 9, PB of PMX167 (monospecific anti-canine CD3, canine IgG-B effector function deficient Fc) (antibody, V domains shown) VH: EVKLVESGGDLVKPGGSLRLSCMASGFTLNNYYMSWVRQAPGKGLQWVAYIKSGGSDTSYVDAVKGRFTISRDNAKNTLHLQMNSLRVEDTAVYYCATDGYIWAWGQGTLVTVSS VL: SYVLTQLPSKNVTLKQPAHITCGGDNIGSKSVHWYQQKLGQAPVLIIYYDNSRPTGIPERFSGAKSGNTATLTISGALAEDEADYYCQVWDSSSKAYVFGSGTQLTVL
Response: 12.8

Query: Give the value of CD25 Activation, Day 9, PB reported for the following: PMX168 (monospecific anti-canine CD3, canine IgG-B effector function deficient Fc) (antibody, V domains shown) VH: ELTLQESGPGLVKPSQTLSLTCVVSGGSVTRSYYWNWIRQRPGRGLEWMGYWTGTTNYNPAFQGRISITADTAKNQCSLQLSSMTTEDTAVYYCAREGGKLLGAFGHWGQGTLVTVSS VL: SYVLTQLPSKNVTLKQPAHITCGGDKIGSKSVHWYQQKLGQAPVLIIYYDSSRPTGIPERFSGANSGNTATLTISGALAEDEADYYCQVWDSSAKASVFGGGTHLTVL
Response: 6.52

Query: Tell us which CD25 Activation, Day 9, PB value is on record for PMX178 (monospecific anti-canine CD3, canine IgG-B effector function deficient Fc) (antibody, V domains shown) VH: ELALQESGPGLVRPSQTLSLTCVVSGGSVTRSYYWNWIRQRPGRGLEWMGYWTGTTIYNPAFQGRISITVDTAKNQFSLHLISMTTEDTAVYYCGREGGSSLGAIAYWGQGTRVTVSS VL: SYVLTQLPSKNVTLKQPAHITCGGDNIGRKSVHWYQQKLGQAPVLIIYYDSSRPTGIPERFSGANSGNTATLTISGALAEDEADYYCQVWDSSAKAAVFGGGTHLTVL
Response: 9.23
